- Tested on: TK-10 renal
- ASSAY SUMMARY: NCI-60 one-dose screen, 48 h (100 = growth as untreated, 0 = no growth, -100 = all killed)
- RUN PARAMETERS: 10 µM unless noted
The panel holds about 83,000 compounds, 20% with a hit somewhere; the sample as a whole holds those more often.
REPORTED PROPERTY: growth (%)

{"columns": ["MOLECULE", "RECORDED RESULT"],
 "data": [
  ["COc1cc2oc(-c3cccc(C(=O)Nc4ccc5c(c4)OCO5)c3)cc(=O)c2c(O)c1OC", 98.6],
  ["O=C(CCN1CCCC1)c1ccc([N+](=O)[O-])cc1", 101],
  ["Fc1ccc2c(-c3cncn3CCc3ccccc3)c[nH]c2c1", 135],
  ["COc1cc(C2=C(c3cn(C)c4ccccc34)COC2=O)cc(OC)c1OC", 44.2],
  ["COc1cc(C(=O)Nc2cc3c(cc2Oc2cc(C)cc(C)c2)C(=O)N(C)[C@@H](CC(=O)N(C)O)C(=O)N3)c(Br)c(OC)c1OC", -12.2],
  ["C=CCN1C(=O)/C(=C/C(=O)OC)S/C1=N\\NC(=O)c1cc2ccc1/C=C\\c1ccc(cc1)/C=C\\2", 108],
  ["O=C(CSc1nc2ccccc2[nH]1)NCc1ccccc1", 4.87],
  ["COc1cc(/C=C/C(=O)c2nc3cc(F)ccc3nc2C)cc(OC)c1OC", 103],
  ["C=C1C(=O)O[C@H]2[C@H]1CC/C(CNC(=O)C(C)c1ccc(CC(C)C)cc1)=C\\CC[C@@]1(C)O[C@@H]21 (some centres undefined)", -61]
]}

Reference for the values: PubChem BioAssay (NCI)
